Settings: Patient ID 151, CYP2D6 functional group PM/PM

[
  {
    "compound": "CC/C(=C(\\c1ccccc1)c1ccc(OCCN(C)C)cc1)c1ccccc1",
    "plasma concentration [ng/mL]": 108.74
  },
  {
    "compound": "CC(O)C(=C(c1ccccc1)c1ccc(OCCN(C)C)cc1)c1ccccc1 (racemic) [(E)-a-OH-Tam]",
    "plasma concentration [ng/mL]": 0.315
  },
  {
    "compound": "CC(O)C(=C(c1ccccc1)c1ccc(OCCN(C)C)cc1)c1ccccc1 (racemic) [(Z)-a-OH-Tam]",
    "plasma concentration [ng/mL]": 0
  },
  {
    "compound": "CC/C(=C(\\c1ccc(O)cc1)c1ccc(OCCNC)cc1)c1ccccc1 [(Z)-Endoxifen 3-OH-NDM-Tam]",
    "plasma concentration [ng/mL]": 1.15
  },
  {
    "compound": "CCC(=C(c1ccccc1)c1ccc(OCCNC)cc1)c1ccc(O)cc1",
    "plasma concentration [ng/mL]": 5.118
  },
  {
    "compound": "CC/C(=C(/c1ccc(OCCNC)cc1)c1ccc(O[C@@H]2O[C@H](C(=O)O)[C@@H](O)[C@H](O)[C@H]2O)cc1)c1ccccc1",
    "plasma concentration [ng/mL]": 0.233
  },
  {
    "compound": "CC/C(=C(\\c1ccccc1)c1ccc(OCCN(C)C)cc1)c1ccc(O)cc1",
    "plasma concentration [ng/mL]": 2.43
  }
]

###

Details: Patient ID 139, CYP2D6 functional group EM/EM
Simple rule here: plasma concentration less than 5 ng/mL is 1, otherwise -1.

[
  {
    "compound": "CC/C(=C(\\c1ccccc1)c1ccc(OCCN(C)C)cc1)c1ccc(O)cc1 [4'-OH-Tam]",
    "class": 1
  },
  {
    "compound": "CC/C(=C(\\c1ccccc1)c1ccc(OCCN(C)C)cc1)c1ccccc1 [Tamoxifen]",
    "class": -1
  },
  {
    "compound": "CC(O)C(=C(c1ccccc1)c1ccc(OCCN(C)C)cc1)c1ccccc1 (racemic) [(Z)-a-OH-Tam]",
    "class": 1
  },
  {
    "compound": "CCC(=C(c1ccccc1)c1ccc(OCCNC)cc1)c1ccc(O)cc1 [4'-OH-NDM-Tam]",
    "class": 1
  },
  {
    "compound": "CC/C(=C(\\c1ccc(O)cc1)c1ccc(OCCNC)cc1)c1ccccc1 [(Z)-Endoxifen 3-OH-NDM-Tam]",
    "class": -1
  },
  {
    "compound": "CC(O)C(=C(c1ccccc1)c1ccc(OCCN(C)C)cc1)c1ccccc1 (racemic) [(E)-a-OH-Tam]",
    "class": 1
  }
]

###

Conditions: Patient ID 191, CYP2D6 functional group PM/PM
readout.label: plasma concentration (ng/mL)

[
  {
    "compound": "CC/C(=C(\\c1ccc(O)cc1)c1ccc(OCCNC)cc1)c1ccccc1 [(Z)-Endoxifen 3-OH-NDM-Tam]",
    "readout.label": "plasma concentration",
    "uom": "ng/mL",
    "recorded.measurement": 2.41
  },
  {
    "compound": "CC/C(=C(\\c1ccccc1)c1ccc(OCCN(C)C)cc1)c1ccccc1 [Tamoxifen]",
    "readout.label": "plasma concentration",
    "uom": "ng/mL",
    "recorded.measurement": 111.78
  },
  {
    "compound": "CC/C(=C(\\c1ccccc1)c1ccc(OCCN(C)C)cc1)c1ccc(O)cc1 [4'-OH-Tam]",
    "readout.label": "plasma concentration",
    "uom": "ng/mL",
    "recorded.measurement": 3.34
  },
  {
    "compound": "CC/C(=C(/c1ccc(OCCNC)cc1)c1ccc(O[C@@H]2O[C@H](C(=O)O)[C@@H](O)[C@H](O)[C@H]2O)cc1)c1ccccc1 [4-OH-NDM-Tam-Gluc]",
    "readout.label": "plasma concentration",
    "uom": "ng/mL",
    "recorded.measurement": 0.354
  },
  {
    "compound": "CCC(=C(c1ccccc1)c1ccc(OCCNC)cc1)c1ccc(O)cc1 [4'-OH-NDM-Tam]",
    "readout.label": "plasma concentration",
    "uom": "ng/mL",
    "recorded.measurement": 5.475
  }
]

###

Conditions: Patient ID 124, CYP2D6 functional group PM/PM
Rule: plasma concentration under 1 ng/mL gives label 0, otherwise label 1.

[
  {
    "compound": "CCC(=C(c1ccccc1)c1ccc(OCCNC)cc1)c1ccc(O)cc1",
    "class": "label 1"
  },
  {
    "compound": "CC(O)C(=C(c1ccccc1)c1ccc(OCCN(C)C)cc1)c1ccccc1 (racemic) [(Z)-a-OH-Tam]",
    "class": "label 0"
  },
  {
    "compound": "CC/C(=C(/c1ccc(OCCNC)cc1)c1ccc(O[C@@H]2O[C@H](C(=O)O)[C@@H](O)[C@H](O)[C@H]2O)cc1)c1ccccc1",
    "class": "label 0"
  },
  {
    "compound": "CC/C(=C(\\c1ccccc1)c1ccc(OCCN(C)C)cc1)c1ccccc1",
    "class": "label 1"
  },
  {
    "compound": "CC/C(=C(\\c1ccccc1)c1ccc(OCCN(C)C)cc1)c1ccc(O)cc1",
    "class": "label 1"
  },
  {
    "compound": "CC/C(=C(\\c1ccc(O)cc1)c1ccc(OCCNC)cc1)c1ccccc1 [(Z)-Endoxifen 3-OH-NDM-Tam]",
    "class": "label 1"
  },
  {
    "compound": "CC(O)C(=C(c1ccccc1)c1ccc(OCCN(C)C)cc1)c1ccccc1 (racemic) [(E)-a-OH-Tam]",
    "class": "label 0"
  }
]

###

Conditions: Patient ID 118, CYP2D6 functional group EM/EM
Recorded measurements of plasma concentration, one per entry

[
  {
    "compound": "CC(O)C(=C(c1ccccc1)c1ccc(OCCN(C)C)cc1)c1ccccc1 (racemic) [(Z)-a-OH-Tam]",
    "plasma concentration, ng/mL": 0.068
  },
  {
    "compound": "CCC(=C(c1ccccc1)c1ccc(OCCNC)cc1)c1ccc(O)cc1",
    "plasma concentration, ng/mL": 4.271
  },
  {
    "compound": "CC/C(=C(\\c1ccccc1)c1ccc(OCCN(C)C)cc1)c1ccc(O)cc1",
    "plasma concentration, ng/mL": 3.28
  },
  {
    "compound": "CC/C(=C(\\c1ccc(O)cc1)c1ccc(OCCNC)cc1)c1ccccc1 [(Z)-Endoxifen 3-OH-NDM-Tam]",
    "plasma concentration, ng/mL": 7.23
  },
  {
    "compound": "CC/C(=C(/c1ccc(OCCNC)cc1)c1ccc(O[C@@H]2O[C@H](C(=O)O)[C@@H](O)[C@H](O)[C@H]2O)cc1)c1ccccc1",
    "plasma concentration, ng/mL": 0.509
  },
  {
    "compound": "CC/C(=C(\\c1ccccc1)c1ccc(OCCN(C)C)cc1)c1ccccc1",
    "plasma concentration, ng/mL": 176.41
  },
  {
    "compound": "CC(O)C(=C(c1ccccc1)c1ccc(OCCN(C)C)cc1)c1ccccc1 (racemic) [(E)-a-OH-Tam]",
    "plasma concentration, ng/mL": 0.252
  }
]

###

Conditions: Patient ID 136, CYP2D6 functional group EM/UM
Recorded measurements of plasma concentration, one per entry

[
  {
    "compound": "CC/C(=C(\\c1ccccc1)c1ccc(OCCN(C)C)cc1)c1ccccc1 [Tamoxifen]",
    "plasma concentration (ng/mL)": 172.38
  },
  {
    "compound": "CC/C(=C(\\c1ccccc1)c1ccc(OCCN(C)C)cc1)c1ccc(O)cc1 [4'-OH-Tam]",
    "plasma concentration (ng/mL)": 3.46
  },
  {
    "compound": "CCC(=C(c1ccccc1)c1ccc(OCCNC)cc1)c1ccc(O)cc1 [4'-OH-NDM-Tam]",
    "plasma concentration (ng/mL)": 4.219
  }
]

###

Settings: Patient ID 199, CYP2D6 functional group EM/IM
Recorded measurements of plasma concentration, one per entry

[
  {
    "compound": "CCC(=C(c1ccccc1)c1ccc(OCCNC)cc1)c1ccc(O)cc1 [4'-OH-NDM-Tam]",
    "uom": "ng/mL",
    "plasma concentration": 4.160
  },
  {
    "compound": "CC/C(=C(/c1ccc(OCCNC)cc1)c1ccc(O[C@@H]2O[C@H](C(=O)O)[C@@H](O)[C@H](O)[C@H]2O)cc1)c1ccccc1 [4-OH-NDM-Tam-Gluc]",
    "uom": "ng/mL",
    "plasma concentration": 1.041
  },
  {
    "compound": "CC/C(=C(\\c1ccccc1)c1ccc(OCCN(C)C)cc1)c1ccccc1 [Tamoxifen]",
    "uom": "ng/mL",
    "plasma concentration": 222.76
  },
  {
    "compound": "CC/C(=C(\\c1ccccc1)c1ccc(OCCN(C)C)cc1)c1ccc(O)cc1 [4'-OH-Tam]",
    "uom": "ng/mL",
    "plasma concentration": 4.11
  },
  {
    "compound": "CC/C(=C(\\c1ccc(O)cc1)c1ccc(OCCNC)cc1)c1ccccc1 [(Z)-Endoxifen 3-OH-NDM-Tam]",
    "uom": "ng/mL",
    "plasma concentration": 7.11
  }
]

meta.source: paper PMC4522133
